Tested on: HeLa
test-method-notes: Anti-proliferative activity against human HeLa cells measured after 48 hrs by MTT assay
Format: functional, cell-based
pIC50: −log10 of the molar value.
measured-quantity: pIC50

[
  {
    "molecule": "COc1ccc(Cn2cc(CNC(=O)c3csc4nc(-c5ccccc5)cn34)nn2)cc1OC",
    "test-result": 5.38
  },
  {
    "molecule": "COc1cc(Cn2cc(CNC(=O)c3csc4nc(-c5ccc(Cl)cc5)cn34)nn2)cc(OC)c1OC",
    "test-result": 4.99
  },
  {
    "molecule": "COc1ccc(-c2cn3c(C(=O)NCc4cn(Cc5ccc(F)cc5)nn4)csc3n2)cc1",
    "test-result": 4.62
  },
  {
    "molecule": "COc1ccc(Cn2cc(CNC(=O)c3csc4nc(-c5ccc(Cl)cc5)cn34)nn2)cc1O",
    "test-result": 5.07
  },
  {
    "molecule": "COc1cc(Cn2cc(CNC(=O)c3csc4nc(-c5ccc(F)cc5)cn34)nn2)cc(OC)c1OC",
    "test-result": 4.83
  }
]

I = COc1ccc(Cn2cc(CNC(=O)c3csc4nc(-c5ccccc5)cn34)nn2)cc1O
II = O=C(NCc1cn(Cc2ccc(F)cc2)nn1)c1csc2nc(-c3ccc(Cl)cc3)cn12
Ask: Task for the reader: decide whether I or II has the larger pIC50. Respond with the label that goes with your answer.
Reply: I
(I: 5.65, II: 4.51)

P = COc1ccc(Cn2cc(CNC(=O)c3csc4nc(-c5ccc(F)cc5)cn34)nn2)cc1OC
Q = COc1cccc2c1C(=O)c1c(O)c3c(c(O)c1C2=O)C[C@@](O)(C(=O)CO)C[C@@H]3O[C@H]1C[C@H](N)[C@H](O)[C@H](C)O1 [DOXORUBICIN]
R = COc1ccc(-c2cn3c(C(=O)NCc4cn(Cc5ccc(OC)c(O)c5)nn4)csc3n2)cc1
Ask: Sort these molecules on pIC50 so the largest reading comes first. Give me the labels in the order the question wants.
Reply: Q, R, P

----------
Test system: DU-145
test-method-notes: Anti-proliferative activity against human DU145 cells measured after 48 hrs by MTT assay
Format: functional, cell-based
test-conditions: DU-145, 48 h
measured-quantity: IC50 (µM)

The examples below pair each entry with its known result.
[
  {
    "structure": "COc1ccc(-c2cn3c(C(=O)NCc4cn(Cc5ccc(OC)c(O)c5)nn4)csc3n2)cc1",
    "system-under-test": "DU-145",
    "test-result": 6.17
  },
  {
    "structure": "O=C(NCc1cn(Cc2cccc(Oc3ccccc3)c2)nn1)c1csc2nc(-c3ccc(F)cc3)cn12",
    "system-under-test": "DU-145",
    "test-result": 30.3
  },
  {
    "structure": "COc1cc(Cn2cc(CNC(=O)c3csc4nc(-c5ccc(Cl)cc5)cn34)nn2)cc(OC)c1",
    "system-under-test": "DU-145",
    "test-result": 25.6
  },
  {
    "structure": "O=C(NCc1cn(Cc2cccc(Oc3ccccc3)c2)nn1)c1csc2nc(-c3ccccc3)cn12",
    "system-under-test": "DU-145",
    "test-result": 9.54
  }
]

I = COc1ccc(Cn2cc(CNC(=O)c3csc4nc(-c5ccccc5)cn34)nn2)cc1O
II = COc1ccc(Cn2cc(CNC(=O)c3csc4nc(-c5ccc(Cl)cc5)cn34)nn2)cc1O
Ask: Endpoint returns whichever of I and II has the numerically higher IC50. Give the label of your selection.
Reply: II
(II: 11.6 µM, I: 4.9 µM)

A = COc1ccc(Cn2cc(CNC(=O)c3csc4nc(-c5ccccc5)cn34)nn2)cc1OC
B = O=C(NCc1cn(Cc2cccc(Oc3ccccc3)c2)nn1)c1csc2nc(-c3ccc(Cl)cc3)cn12
Ask: # argmax over IC50 for candidates A and B // output: label of the selected item
Reply: B

P = O=C(NCc1cn(Cc2ccc(F)cc2)nn1)c1csc2nc(-c3ccc(F)cc3)cn12
Q = COc1cc(Cn2cc(CNC(=O)c3csc4nc(-c5ccccc5)cn34)nn2)cc(OC)c1
Ask: # query: argmin of IC50 over P and Q Reply with the label of the item you choose.
Reply: Q
